These entries and their values trace back to the supplement of paper PMC5998384.

System: HeLa Kyoto;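 note: synchronized HeLa Kyoto cells, proteins quantified by TMT10plex mass spectrometry, three biological replicates, mitosis taken 0.5 h after nocodazole release, G1/S directly after double thymidine block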
Assay comment: thermal stability score vs G1/S (z-score of summed log2 fold changes over temperatures); higher = more thermally stable than in G1/S
Test conditions: cell cycle stage: mitosis
Catalogue of thermal stability score values
Experimental endpoint: thermal stability score

>  <Substance>
MEAVVNLYQEVMKHADPRIQGYPLMGSPLLMTSILLTYVYFVLSLGPRIMANRKPFQLRGFMIVYNFSLVALSLYIVYEFLMSGWLSTYTWRCDPVDYSNSPEALRMVRVAWLFLFSKFIELMDTVIFILRKKDGQVTFLHVFHHSVLPWSWWWGVKIAPGGMGSFHAMINSSVHVIMYLYYGLSAFGPVAQPYLWWKKHMTAIQLIQFVLVSLHISQYYFMSSCNYQYPVIIHLIWMYGTIFFMLFSNFWYHSYTKGKRLPRALQQNGAPGIAKVKAN [ELOVL1]

>  <Experimental endpoint>
thermal stability score

>  <Value>
1.9

$$$$
>  <Substance>
CTDSPL2

>  <Experimental endpoint>
thermal stability score

>  <Value>
4.58

$$$$
>  <Substance>
MGKGCKVVVCGLLSVGKTAILEQLLYGNHTIGMEDCETMEDVYMASVETDRGVKEQLHLYDTRGLQEGVELPKHYFSFADGFVLVYSVNNLESFQRVELLKKEIDKFKDKKEVAIVVLGNKIDLSEQRQVDAEVAQQWAKSEKVRLWEVTVTDRKTLIEPFTLLASKLSQPQSKSSFPLPGRKNKGNSNSEN [NKIRAS1]

>  <Experimental endpoint>
thermal stability score

>  <Value>
-1.95e-17

$$$$
